target: T1, regulatory RIIβ subunit of PKA (rat) (rat, UniProt P12369 1-416, 32P-labelled with the catalytic subunit of PKA when used as probe in the RII overlay experiments); test: RII overlay: SPOT peptide on membrane, 32P-labelled RIIβ probe, phosphoimager, densitometry as % of AKAP18δ-wt
T1 construct: Radiolabelled probe in RII overlays; format in the surface plasmon resonance measurements is not described; also called RIIβ subunit of PKA from rats
T1 sequence (P12369 whole entry): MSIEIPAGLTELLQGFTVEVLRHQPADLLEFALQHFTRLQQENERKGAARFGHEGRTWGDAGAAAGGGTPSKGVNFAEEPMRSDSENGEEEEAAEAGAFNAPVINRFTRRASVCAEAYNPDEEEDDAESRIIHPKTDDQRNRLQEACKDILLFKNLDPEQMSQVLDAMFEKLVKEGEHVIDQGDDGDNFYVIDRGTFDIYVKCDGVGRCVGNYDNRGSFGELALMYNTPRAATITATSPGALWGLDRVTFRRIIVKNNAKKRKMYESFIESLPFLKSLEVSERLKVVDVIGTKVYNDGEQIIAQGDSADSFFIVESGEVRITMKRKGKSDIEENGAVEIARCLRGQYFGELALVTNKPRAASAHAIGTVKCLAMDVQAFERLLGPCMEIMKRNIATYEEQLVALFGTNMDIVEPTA
EXPERIMENTAL ENDPOINT: binding result

>>> assay_value("ARDAQLVRLSKRLVENAVLKAVQQY (AKAP18δ-derived; also called No. F) [Peptide 6]")
"binds"
>>> assay_value("PEDAELVRLSKRLVENAVLQAVQQY (AKAP18δ-derived; also called No. N) [Peptide 14]")
"binds"
>>> assay_value("ANDARLVRLSKRLVENAVLKAVQQY (also called peptide 7; No. G) [peptide No. 7 (AKAP18δ-derived, FIG. 3)]")
"binds"
>>> assay_value("ANDAKTERLSKRLVENAVLKAVQQY (AKAP18δ-derived; also called No. J) [Peptide 10]")
"binds"
>>> assay_value("PEDAELVRLSKRLVENAVLNGVQQY (AKAP18δ-derived; also called No. O) [Peptide 15]")
"binds"
>>> assay_value("ASDAKLVRLSKRLVENAVLKAVQQY (AKAP18δ-derived; also called No. D) [Peptide 4]")
"binds"
>>> assay_value("ANDAKTQRLSQRLVENAVLKAVQQY (AKAP18δ-derived; also called No. L) [Peptide 12]")
"binds"
>>> assay_value("PEDAELVRLSKRLVENAVLNGNQQY (AKAP18δ-derived; also called No. Q) [Peptide 17]")
"binds"

Challenge: // lookup binding result for PEDAELVRLSKRLVENAVKNGAQDY (AKAP18δ-derived; also called No. S) [Peptide 19]
Response given: binds

Challenge: // lookup binding result for ARDAKLVRLSKRLVENAVLKAVQQY (AKAP18δ-derived; also called No. E) [Peptide 5]
Response given: binds
